These measurements were taken from paper PMC9352680.

# Target system: T1, PUF4 RNA-binding domain (Saccharomyces cerevisiae, UniProt P25339 537-888)
# T1 sequence: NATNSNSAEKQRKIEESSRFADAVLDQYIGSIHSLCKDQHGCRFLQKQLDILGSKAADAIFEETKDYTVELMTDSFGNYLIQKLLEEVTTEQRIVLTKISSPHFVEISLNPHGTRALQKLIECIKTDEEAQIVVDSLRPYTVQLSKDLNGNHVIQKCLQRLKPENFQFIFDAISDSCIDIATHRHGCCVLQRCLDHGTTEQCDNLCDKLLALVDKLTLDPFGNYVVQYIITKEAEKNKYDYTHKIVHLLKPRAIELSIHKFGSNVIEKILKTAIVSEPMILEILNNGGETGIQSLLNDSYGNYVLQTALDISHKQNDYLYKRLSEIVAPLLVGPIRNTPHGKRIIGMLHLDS
# Test method notes: Mg; RNA-MaP; 20 mM Na-HEPES pH 7.4, 30 mM KOAc, 0.75 mM MgCl2, 0.1% Tween-20, 5% glycerol, 0.1 mg/mL BSA, 2 mM DTT; 25 C; 0.0125-409.6 nM protein
# Condition summary: tags: N-His6-TEV cleaved; C-SNAP kept, Cy3B-labelled; label: tethered on chip by stalled RNA polymerase
Please use T for Kd under 300 nM and F for everything else, ties included.

Ic_S2_P4E.1_K4.1_C4.1_H4.1_A4.1_[T5G]_[A6C]_F4.1_[T8C]_[A9G]_T4.1 (ssRNA) RNA: UUUGAUUAAUAUGAUAUCGUUCUUUCUUGUAGCUCGUUCUUUCUCGAUAUCAUAUUAAUCUUU :: F
UCUCUUUCGUGUAUAUUAGUUCUCUU (ssRNA) [Id_iii_S1_P4E.5_K4.1_C4.3_[T-1G]_H4.1_A4.1_F4.1_T4.2] :: T
Ic_S4_P5E.1_K5.1_C5.1_H5.1_A5.1_[T5C]_[T6C]_F5.1_[T8C]_[T9A]_[A10T]_T5.1 (ssRNA) RNA: UUUGACAACUGAUCGUUCUUUCUUGUACCACAUUUCUUUCUCGAUCAGUUGUCUUU :: T
Ic_S4_P5E.1_K5.1_C5.1_H5.1_A5.1_[T5A]_[A7T]_F5.1_[T8G]_[T9C]_[A10C]_T5.1 (ssRNA) RNA: UUUGACAACUGAUCGUUCUUUCUUGUAAUUGCCUUCUUUCUCGAUCAGUUGUCUUU :: F
Ic_S4_P5E.1_K5.1_C5.1_H5.1_A5.1_[T6G]_[A7T]_F5.1_[T8A]_[T9C]_[A10C]_T5.1 (ssRNA) RNA: UUUGACAACUGAUCGUUCUUUCUUGUAUGUACCUUCUUUCUCGAUCAGUUGUCUUU :: T

Lookup: Consider the binder UCUCUUUGUAUAACGUUCUCUU (ssRNA) [Ic_S1_P5E.1_K5.1_C5.1_H5.1_A5.1_[T6A]_F5.1_[T8C]_[T9G]_[A10T]_T5.1] . Is its Kd strictly less than 300 nM?
Found: T

Lookup: Threshold test, Kd < 300 nM: UCUCUUCUUCCCUGUAUAUAUAUCUCUU (ssRNA) [Ie_S1_P3E.2_K3.1_C3.2_H3.1_[+1CCCT]_A3.1_F3.1_T3.2]
Found: T

Lookup: Consider the binder UCUCUUUGUACACGCCUCUCUU (ssRNA) [Ic_S1_P5E.1_K5.1_C5.1_H5.1_A5.1_[T5C]_[T6A]_[A7C]_F5.1_[T8G]_[T9C]_[A10C]_T5.1] . Is its Kd strictly less than 300 nM?
Found: F

Lookup: Is Kd strictly under 300 nM for the entry Ib_S2_P3E.1_K3.1_C3.1_H3.1_[G2C]_A3.1_F3.1_[T7A]_T3.1 (ssRNA) RNA: UUUGAUUAAUAUGAUAUCGUUCUUUCUUCUAUAAAUUCUUUCUCGAUAUCAUAUUAAUCUUU ?
Found: F

Lookup: State whether 300 nM exceeds Kd recorded for Ib_S2_P4E.1_K4.1_C4.1_H4.1_A4.1_[A6C]_F4.1_[A9G]_T4.1 (ssRNA) RNA: UUUGAUUAAUAUGAUAUCGUUCUUUCUUGUAUCUUGUUCUUUCUCGAUAUCAUAUUAAUCUUU .
Found: T

Lookup: Here's an entry: UCUCUUUGUACAGUCUUCUCUU (ssRNA) [Ic_S1_P5E.1_K5.1_C5.1_H5.1_A5.1_[T5C]_[T6A]_[A7G]_F5.1_[T9C]_[A10T]_T5.1] . Is its Kd below 300 nM?
Found: T
